Provenance of the data: paper PMC3486838

Target Desc: human CYP11B2 (Homo sapiens, UniProt P19099)
Construct: expressed in transfected cells; host or cells: V79MZh cells
Sequence (P19099 25-503): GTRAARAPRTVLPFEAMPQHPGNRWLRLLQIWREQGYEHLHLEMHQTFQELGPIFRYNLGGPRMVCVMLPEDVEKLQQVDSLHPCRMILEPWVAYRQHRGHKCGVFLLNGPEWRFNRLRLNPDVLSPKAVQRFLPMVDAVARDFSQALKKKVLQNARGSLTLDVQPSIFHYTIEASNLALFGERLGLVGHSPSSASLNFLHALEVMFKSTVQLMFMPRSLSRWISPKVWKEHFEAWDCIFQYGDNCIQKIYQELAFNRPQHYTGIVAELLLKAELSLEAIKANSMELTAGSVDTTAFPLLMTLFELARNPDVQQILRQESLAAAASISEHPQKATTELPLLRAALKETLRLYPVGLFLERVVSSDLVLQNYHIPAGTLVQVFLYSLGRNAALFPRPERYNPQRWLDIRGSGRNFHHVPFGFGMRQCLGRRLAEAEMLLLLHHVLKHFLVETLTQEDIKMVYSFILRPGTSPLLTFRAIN
Test Name: Inhibition of CYP11B2 in V79 MZh cells expressing the enzyme
Type: cell-based
Measurement Conditions: CYP11B2 over CYP11B1
Quantity: SF: selectivity factor = IC50 CYP11B1/IC50 CYP11B2
Give bare numbers.

Please report SF: selectivity factor = IC50 CYP11B1/IC50 CYP11B2 for every entry that follows.
1. c1cncc(C2CCCCCCCCC2)c1 [Compound 14, 3-Cyclodecyl-pyridine]
2. OC1CC2C=C(c3cccnc3)CC2C1 (stereo not drawn) [Compound 5]
3. C1=C(c2cccnc2)C2CCC1C2 (stereo not drawn) [Compound 18, 3-Bicyclo[2.2.1]hept-2-en-2-yl-pyridine]
4. C1=C(c2cccnc2)CCCCCCCC1 [Compound 13, 3-Cyclodec-1-enyl-pyridine]
5. c1cncc(C2CCCCCCCCCCC2)c1 [Compound 16, 3-Cyclododecyl-pyridine]
6. COc1ccc2c(c1)CC(C)C(c1cccnc1)=C2 (stereo not drawn) [III, reference compound]
7. C=C1CC2C=C(c3cccnc3)CC2C1 (stereo not drawn) [Compound 4]
8. CC12CCC(c3cccnc3)=CC1=CCCC2=O (racemic) [Compound 17]

Response line:
40
3
3
12
3
79
34
2

Prompt line: Tell me the measured SF: selectivity factor = IC50 CYP11B1/IC50 CYP11B2 of OC1CCC=C(c2cccnc2)CCC1 (stereo not drawn) [Compound 9, 5-Pyridin-3-yl-cyclooct-4-enol] , please.
Response line: 2

###

Please provide measured IC50 for the entries that follow.
Target Desc: human hepatic enzyme CYP1A2 (Homo sapiens, UniProt P05177)
Sequence (P05177 whole entry): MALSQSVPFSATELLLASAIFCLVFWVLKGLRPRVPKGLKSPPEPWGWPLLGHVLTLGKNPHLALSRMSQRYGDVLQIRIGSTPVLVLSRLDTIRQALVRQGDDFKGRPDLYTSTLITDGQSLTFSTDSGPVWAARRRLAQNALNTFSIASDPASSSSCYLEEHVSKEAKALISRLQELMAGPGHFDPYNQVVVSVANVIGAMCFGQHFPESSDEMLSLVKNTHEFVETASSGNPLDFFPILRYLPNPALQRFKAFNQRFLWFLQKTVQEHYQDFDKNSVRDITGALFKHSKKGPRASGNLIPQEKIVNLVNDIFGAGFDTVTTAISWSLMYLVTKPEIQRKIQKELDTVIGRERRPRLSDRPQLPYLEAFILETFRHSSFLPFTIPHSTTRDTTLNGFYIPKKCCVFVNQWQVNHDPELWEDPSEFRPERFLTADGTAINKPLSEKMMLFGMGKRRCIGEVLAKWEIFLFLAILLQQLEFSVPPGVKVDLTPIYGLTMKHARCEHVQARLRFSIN
Test Name: Inhibition of human hepatic CYP1A2, recombinant enzyme (Supersomes)
Assay type: biochemical
Measurement Conditions: recombinantly expressed enzyme from baculovirus infected insect microsomes (Supersomes)

Compound	Measured Value
c1cncc(C2CCCCCCCCC2)c1	> 100000 nM
COC1CCc2cc(-c3cccnc3)ccc2C1 (stereo not shown) [II, reference compound]	440 nM
C=C1CC2C=C(c3cccnc3)CC2C1 (stereo not shown)	2170 nM
c1cncc(C2CC3CCC2C3)c1 (stereo not shown)	44400 nM
C1=C(c2cccnc2)CCCCCC1	> 100000 nM
COc1ccc2c(c1)CC(C)C(c1cccnc1)=C2 (stereo not shown) [III, reference compound]	741 nM

Please report IC50 for every entry that follows.
1. COc1ccc2cc(-c3cccnc3)ccc2c1 [I, reference compound]
2. C1=C(c2cccnc2)CCCCCCCC1
3. c1cncc(C2CCCCCCC2)c1
4. O=C1CC2C=C(c3cccnc3)CC2C1 (stereo not shown)

Response line:
41 nM
> 100000 nM
> 100000 nM
> 100000 nM
